Test system: K86415-001-R-J1-PDC complex spheroids, viability
Protocol details: Anticancer human tumor K86415-001-R-J1-PDC patient-derived lung adenocarcinoma cell line growth inhibition [RAS]
Run parameters: curve of first compound; second compound 1 µM
Attribute measured: IC50 (µM)

(P) CC(C)NCC(C(=O)N1CCN(c2ncnc3c2C(C)CC3O)CC1)c1ccc(Cl)cc1 (stereo not drawn) + C#Cc1c(F)ccc2cc(O)cc(-c3ncc4c(N5CC6CCC(C5)N6)nc(OCC56CCCN5CC(F)C6)nc4c3F)c12
(Q) CCc1c2c(nc3ccc(O)cc13)-c1cc3c(c(=O)n1C2)COC(=O)[C@]3(O)CC + C#Cc1c(F)ccc2cc(O)cc(-c3ncc4c(N5CC6CCC(C5)N6)nc(OCC56CCCN5CC(F)C6)nc4c3F)c12
(R) CC(C)n1nc(-c2ccc3oc(N)nc3c2)c2c(N)ncnc21 + C#Cc1c(F)ccc2cc(O)cc(-c3ncc4c(N5CC6CCC(C5)N6)nc(OCC56CCCN5CC(F)C6)nc4c3F)c12
Re-order the entries listed above so their IC50 values fall from first to last. Enter labels, ranked according to the request.
P, R, Q

###

System: K86415-001-R-J1-PDC complex spheroids, viability
Protocol details: Anticancer human tumor K86415-001-R-J1-PDC cell line growth inhibition [RAS];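 also: spheroids exposed to agents for seven days before readout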
Run parameters: second compound 0.01 µM; first compound 3.16 µM; stronger effect = lower value
Attribute measured: viability, T/C (%)
Reply with just the number (in %).

Sample answers from the record:
compound="CC(C)NCC(C(=O)N1CCN(c2ncnc3c2C(C)CC3O)CC1)c1ccc(Cl)cc1 (centres undefined) + C=CC(=O)N1CCN(c2nc(OCC3CCCN3C)nc3c(F)c(-c4nc(N)cc(C)c4C(F)(F)F)c(Cl)cc23)C(C)C1" target_of_assay="K86415-001-R-J1-PDC complex spheroids, viability" attribute_measured="viability, T/C" unit_of_measure=% reported_result=9.79
compound="C[C@@H](NC(=O)c1ncnc(N)c1Cl)c1ncc(C(=O)Nc2cc(C(F)(F)F)c(Cl)cn2)s1 + C=CC(=O)N1CCN(c2nc(OCC3CCCN3C)nc3c(F)c(-c4nc(N)cc(C)c4C(F)(F)F)c(Cl)cc23)C(C)C1" target_of_assay="K86415-001-R-J1-PDC complex spheroids, viability" attribute_measured="viability, T/C" unit_of_measure=% reported_result=20
compound="CCC(CC)c1cc(NC2CCC(N)C2)n2nccc2n1 (centres undefined) + C=CC(=O)N1CCN(c2nc(OCC3CCCN3C)nc3c(F)c(-c4nc(N)cc(C)c4C(F)(F)F)c(Cl)cc23)C(C)C1" target_of_assay="K86415-001-R-J1-PDC complex spheroids, viability" attribute_measured="viability, T/C" unit_of_measure=% reported_result=2.98

May I ask what viability, T/C has been recorded for Cc1nc(N2CCC3(CC2)COC(C)C3N)c(CO)nc1Sc1ccnc(N)c1Cl (centres undefined) + C=CC(=O)N1CCN(c2nc(OCC3CCCN3C)nc3c(F)c(-c4nc(N)cc(C)c4C(F)(F)F)c(Cl)cc23)C(C)C1 ?
4.74

###

The entries below come with measured viability, T/C values attached.
System: K86415-001-R-J1-PDC complex spheroids, viability
Protocol details: Anticancer human tumor K86415-001-R-J1-PDC cell line growth inhibition [RAS];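 also: spheroids exposed to agents for seven days before readout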
Run parameters: second compound 1 µM; first compound 10 µM; stronger effect = lower value
Reply with just the number (in %).

compound="CC1(O)CCCC1n1c(=O)c(C(F)F)cc2cnc(NC3CCN(S(C)(=O)=O)CC3)nc21 (stereo not given) + C=CC(=O)N1CCN(c2nc(OCC3CCCN3C)nc3c(F)c(-c4nc(N)cc(C)c4C(F)(F)F)c(Cl)cc23)C(C)C1" target_of_assay="K86415-001-R-J1-PDC complex spheroids, viability" attribute_measured="viability, T/C" reported_result=5.93

May I ask what viability, T/C has been recorded for CCC(CC)c1cc(NC2CCC(N)C2)n2nccc2n1 (stereo not given) + C#Cc1c(F)ccc2cc(O)cc(-c3ncc4c(N5CC6CCC(C5)N6)nc(OCC56CCCN5CC(F)C6)nc4c3F)c12 ?
2.6

Try this compound too: Cc1nc(N2CCC3(CC2)COC(C)C3N)c(CO)nc1Sc1ccnc(N)c1Cl (stereo not given) + C#Cc1c(F)ccc2cc(O)cc(-c3ncc4c(N5CC6CCC(C5)N6)nc(OCC56CCCN5CC(F)C6)nc4c3F)c12
8.04

Try this compound too: CCC(CC)c1cc(NC2CCC(N)C2)n2nccc2n1 (stereo not given) + C=CC(=O)N1CCN(c2nc(OCC3CCCN3C)nc3c(F)c(-c4nc(N)cc(C)c4C(F)(F)F)c(Cl)cc23)C(C)C1
4.47

Try this compound too: CC(C)NCC(C(=O)N1CCN(c2ncnc3c2C(C)CC3O)CC1)c1ccc(Cl)cc1 (stereo not given) + C=CC(=O)N1CCN(c2nc(OCC3CCCN3C)nc3c(F)c(-c4nc(N)cc(C)c4C(F)(F)F)c(Cl)cc23)C(C)C1
3.49
